system: kochia (Kochia scoparia); assay: Test A preemergence, kochia; type: in vivo; settings: Bassia scoparia, pre-emergence, 240 h, 125 g ai/ha, 0 to 100 scale (0 no effect, 100 complete control), read-out: Plant response rating, Kochia

molecule	pest or weed control at 125 g/ha / %
FC(F)(F)CCCC1CCc2cccc(Oc3ncc(Cl)cn3)c21 (stereo not drawn)	50
O=C1Cc2cccc(Oc3ncc(Cl)cn3)c2C(CCCC(F)(F)F)O1 (stereo not drawn)	60
O=C1OC(CCC(F)(F)F)c2c(Oc3ncc(Cl)cn3)cccc21 (stereo not drawn)	100
O=C1Cc2cccc(Oc3ncc(Cl)cn3)c2C(CCC(F)(F)F)O1 (stereo not drawn)	50
O=C1OCc2cccc(Oc3ncc(Cl)cn3)c2C1CCCC(F)(F)F (stereo not drawn)	20
FC(F)(F)CCC1OCc2cccc(Oc3ncc(Cl)cn3)c21 (stereo not drawn)	100
FC(F)(F)CCC1OCCc2cccc(Oc3ncc(Cl)cn3)c21 (stereo not drawn)	0
FC(F)(F)CC[C@@H]1OCc2cccc(Oc3ncc(Cl)cn3)c21	0
O=C1O[C@H](CCCC(F)(F)F)c2c(Oc3ncc(Cl)cn3)cccc21	100
CCCC1OC(=O)Cc2cccc(Oc3ncc(Cl)cn3)c21 (stereo not drawn)	0
FC(F)(F)CCCC1OCCc2cccc(Oc3ncc(Cl)cn3)c21 (stereo not drawn)	0
O=C1OC(CCCCC(F)(F)F)Cc2c(Oc3ncc(Cl)cn3)cccc21 (stereo not drawn)	0
OC1(CCC(F)(F)F)CCc2cccc(Oc3ncc(Cl)cn3)c21 (stereo not drawn)	50
O=C1OCc2cccc(Oc3ncc(Cl)cn3)c2C1CCC(F)(F)F (stereo not drawn)	10
O=C1O[C@H](CCC(F)(F)F)c2c(Oc3ncc(Cl)cn3)cccc21	100
O=C1CCC(CCCC(F)(F)F)c2c(Oc3ncc(Cl)cn3)cccc21 (stereo not drawn)	0
FC(F)(F)CCC1COc2cccc(Oc3ncc(Cl)cn3)c21 (stereo not drawn)	0
O=C1OC(CCC(F)(F)F)Cc2c(Oc3ncc(Cl)cn3)cccc21 (stereo not drawn)	60

Data origin: patent US11427549B2
